measurement-target: T1, GWARA CX7C peptide-muIgG2a-Fc fusion
T1 chain: ACPGWARAFC
procedure-details: ELISA
measurement-setup: chain shown with the change
# if value of ratio to parent reaches 0.2, tag true; if it stays below, tag false

[[record]]
binder = "anti-minocycline single-domain antibody clone 1 (aMinoC1 sdAb) G40A (protein) QVQLESGGGLVQPGSSLRLSCAASGRTFSSYNIAWFRQAPKEREFVAAISWSGARTYYADSVKGRFTISRDNAKNTVYLQMNSLKPEDTAVYSCAAGRGWGTEAILDYWGQGTQVSSA"
assigned_label = "true"

[[record]]
binder = "anti-minocycline single-domain antibody clone 1 (aMinoC1 sdAb) R64A (protein) QVQLESGGGLVQPGSSLRLSCAASGRTFSSYNIGWFRQAPKEREFVAAISWSGAATYYADSVKGRFTISRDNAKNTVYLQMNSLKPEDTAVYSCAAGRGWGTEAILDYWGQGTQVSSA"
assigned_label = "false"

[[record]]
binder = "anti-minocycline single-domain antibody clone 1 (aMinoC1 sdAb) A63S (protein) QVQLESGGGLVQPGSSLRLSCAASGRTFSSYNIGWFRQAPKEREFVAAISWSGSRTYYADSVKGRFTISRDNAKNTVYLQMNSLKPEDTAVYSCAAGRGWGTEAILDYWGQGTQVSSA"
assigned_label = "false"

[[record]]
binder = "anti-minocycline single-domain antibody clone 1 (aMinoC1 sdAb) S35A (protein) QVQLESGGGLVQPGSSLRLSCAASGRTFASYNIGWFRQAPKEREFVAAISWSGARTYYADSVKGRFTISRDNAKNTVYLQMNSLKPEDTAVYSCAAGRGWGTEAILDYWGQGTQVSSA"
assigned_label = "false"

[[record]]
binder = "anti-minocycline single-domain antibody clone 1 (aMinoC1 sdAb) W58A (protein) QVQLESGGGLVQPGSSLRLSCAASGRTFSSYNIGWFRQAPKEREFVAAISASGARTYYADSVKGRFTISRDNAKNTVYLQMNSLKPEDTAVYSCAAGRGWGTEAILDYWGQGTQVSSA"
assigned_label = "true"

[[record]]
binder = "anti-minocycline single-domain antibody clone 1 (aMinoC1 sdAb) R28A (protein) QVQLESGGGLVQPGSSLRLSCAASGATFSSYNIGWFRQAPKEREFVAAISWSGARTYYADSVKGRFTISRDNAKNTVYLQMNSLKPEDTAVYSCAAGRGWGTEAILDYWGQGTQVSSA"
assigned_label = "false"

[[record]]
binder = "anti-minocycline single-domain antibody clone 1 (aMinoC1 sdAb) R108A (protein) QVQLESGGGLVQPGSSLRLSCAASGRTFSSYNIGWFRQAPKEREFVAAISWSGARTYYADSVKGRFTISRDNAKNTVYLQMNSLKPEDTAVYSCAAGAGWGTEAILDYWGQGTQVSSA"
assigned_label = "false"

